Cited source for all entries: patent US20190309074A1

Parameter Fraction2, After φ: see the listing below.
Assay: aggregation and purification amounts of deglycosylated antibodies, before and after φ
Assay type: physicochemical
Conditions: based on 100 ml culture

Briefly, Fraction2, After φ measured for Deglyco-C3: deglycosylated clone 1 IgG; light chain CDR1 TGSSSNIGWSNVT (SEQ ID NO: 4) (antibody, V domains shown) VH: EVQLVESGGGLVQPGGSLRLSCAVSGFTFSGYDMSWIRQAPGKGLEWVAGIYPDGGNTYYADSVKGRFTISRDDSKNTFYLQMNSLRAEDTAVYYCARGATWWVLGPFDYWGQGTLVTVSS VL: DIQLTQSPSSLSASVGDRVTITCTGSSSNIGWSNVTWYQQKPGKAPKLLIYADSHRPSGVPSRFSGSGSGTDFTLTISSLQPEDFATYYCGAWDDSLSGYVFGQGTKVEIKR : 2.109 mg

Kindly note the recorded Fraction2, After φ for Deglyco-C4: deglycosylated clone 1 IgG; light chain CDR1 TGSSSNIGAVVVT (SEQ ID NO: 5) (antibody, V domains shown) VH: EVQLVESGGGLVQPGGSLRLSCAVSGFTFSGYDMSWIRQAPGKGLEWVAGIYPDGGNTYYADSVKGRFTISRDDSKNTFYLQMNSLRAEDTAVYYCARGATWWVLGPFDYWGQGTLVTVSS VL: DIQLTQSPSSLSASVGDRVTITCTGSSSNIGAVVVTWYQQKPGKAPKLLIYADSHRPSGVPSRFSGSGSGTDFTLTISSLQPEDFATYYCGAWDDSLSGYVFGQGTKVEIKR , which is 1.126 mg

For reference, reported Fraction2, After φ for deglyco C1 IgG: deglycosylated clone 1 IgG; light chain CDR1 TGSSSNIGRCGVT (SEQ ID NO: 2), N32R/N33C/S34G (antibody, V domains shown) VH: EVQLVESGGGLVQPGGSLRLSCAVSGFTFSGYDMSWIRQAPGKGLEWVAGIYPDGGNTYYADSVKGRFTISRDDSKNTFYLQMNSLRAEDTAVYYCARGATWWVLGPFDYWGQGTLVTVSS VL: DIQLTQSPSSLSASVGDRVTITCTGSSSNIGRCGVTWYQQKPGKAPKLLIYADSHRPSGVPSRFSGSGSGTDFTLTISSLQPEDFATYYCGAWDDSLSGYVFGQGTKVEIKR stands at 3.763 mg
